MEASURE: melting point

1. COC1(CN(C)c2ccc(C(=O)O)cc2)CCN(CCc2ccc(C#N)cc2)CC1.Cl : 226.3 to 230.7 °C
2. COC(=O)c1ccc(OCC2(O)CCN(CCc3ccc(C#N)cc3)CC2)cc1 : 118.6 to 120.6 °C
3. COC(=O)c1ccc(N(C)CC2(O)CN(CCc3ccc(C#N)cc3)C2)cc1 : 145.5 to 149.1 °C
4. CN(CCC1(O)CCN(CCc2ccc(C#N)cc2)CC1)c1ccc(C(=O)O)cc1 : 146.8 to 148.4 °C
5. CN(CC1(O)CCCN(CCc2ccc(C#N)cc2)C1)c1ccc(C(=O)O)cc1 (stereo not shown) : 166.9 to 181.3 °C
6. Cc1cc(C(=O)O)ccc1N(C)CC1(O)CCN(CCc2ccc(C#N)cc2)CC1.Cl : 127.1 to 132.7 °C
7. COC(=O)c1ccc(N(C)CC2(O)CCN(CCCc3ccc(C#N)cc3)CC2)cc1 : 126.8 to 129.7 °C
8. Cc1cc(C(=O)O)ccc1N(C)CC1(O)CCN(CCc2ccc(C#N)cc2)CC1 : 103.6 to 108.7 °C
9. CN(CC1(O)CN(CCc2ccc(C#N)cc2)C1)c1ccc(C(=O)O)cc1 : 197.9 to 199.4 °C
10. COc1cc(N(C)CC2(O)CCN(CCc3ccc(C#N)cc3)CC2)c(Cl)cc1C(=O)O : 226.8 to 228.3 °C
11. CN(CC1(O)CCN(CCOc2ccc(C#N)cc2)CC1)c1ccc(C(=O)O)cc1.Cl : 258.4 to 260.1 °C
12. CN(CC1(O)CN(CCc2ccc(C#N)cc2)C1)c1ccc(C(=O)O)cc1.Cl : 209.1 to 210.5 °C
13. CN(CC1(O)CCN(CCc2ccc(C#N)cc2)C1)c1ccc(C(=O)O)cc1.Cl (stereo not shown) : 122.8 to 132.5 °C
14. COc1cc(C(=O)O)ccc1N(C)CC1(O)CCN(CCc2ccc(C#N)cc2)CC1 : 252.6 °C (dec.)
15. CN(CC1(O)CCN(CCCc2ccc(C#N)cc2)CC1)c1ccc(C(=O)O)cc1.Cl : 150.1 to 151.2 °C
16. CN(CC1(O)CCN(CCc2ccc(C#N)cc2)CC1)c1ccc(C(=O)NOC2CCCCO2)cc1 (stereo not shown) : 100.9 to 102.1 °C
17. COC(=O)c1ccc(S(=O)(=O)CC2(O)CCN(CCc3ccc(C#N)cc3)CC2)cc1 : 135.4 to 137.2 °C
18. CN(CC1(O)CCN(CCc2ccc(C(F)(F)F)cc2)CC1)c1ccc(C(=O)O)cc1.Cl : 235.1 to 246.9 °C
19. CN(CC1(O)CCN(CCc2ccc(C#N)cc2)CC1)c1ccc(C(=O)O)cc1Cl : 110.7 to 112.4 °C
20. COC(=O)c1ccc(SCC2(O)CCN(CCc3ccc(C#N)cc3)CC2)cc1 : 119.1 to 120.8 °C
21. CN(CCC1(O)CCN(CCc2ccc(C#N)cc2)CC1)c1ccc(C(=O)O)cc1.Cl : 231.3 to 236.4 °C
22. CN(CC1(O)CCN(CCc2ccc(C#N)cc2)CC1)c1ccc(C(=O)NO)cc1.Cl : 191.3 to 193.9 °C
23. COC(=O)c1ccc(N(C)CC2(O)CCN(Cc3ccc(C#N)cc3)CC2)cc1 : 127.5 to 137.1 °C
24. CN(CC1(O)CCN(CCc2ccc(C#N)cc2)CC1)c1ccc(C(=O)O)c(Cl)c1.Cl : 145.2 to 148 °C
25. COC(=O)c1ccc(N(C)CC2(OC)CCN(CCc3ccc(C#N)cc3)CC2)cc1 : 126.9 to 134.5 °C
26. CN(CC1(O)CCCN(CCc2ccc(C#N)cc2)C1)c1ccc(C(=O)O)cc1.Cl (stereo not shown) : 220.1 to 233.3 °C
27. COC(=O)c1ccc(N(C)CC2(O)CCN(CCOc3ccc(C#N)cc3)CC2)cc1 : 112.5 to 113 °C
28. CN(CC1(O)CCN(CCc2ccc(C#N)cc2)CC1)c1ccc(C(=O)O)cc1Cl.Cl : 254.2 to 258.9 °C
29. CN(CC1(O)CCN(CCc2ccc(C#N)cc2)C1)c1ccc(C(=O)O)cc1 (stereo not shown) : 106.1 to 130.8 °C
30. CN(CC1(O)CCN(CCc2ccc(C#N)cc2)CC1)c1ccc(C(=O)O)c(Cl)c1 : 186.2 to 189.6 °C
31. COC(=O)c1ccc([S+]([O-])CC2(O)CCN(CCc3ccc(C#N)cc3)CC2)cc1 (stereo not shown) : 169.6 to 174.5 °C
32. COc1cc(N(C)CC2(O)CCN(CCc3ccc(C#N)cc3)CC2)c(Cl)cc1C(=O)O.Cl : 116.3 to 120.8 °C
33. COC(=O)c1ccc(N(C)CC2(O)CCN(CCc3ccc(C#N)cc3)CC2)cc1 : 140.5 to 142.2 °C
34. CN(CC1(O)CCCN(CCc2ccc(C#N)cc2)C1)c1ccc(C(=O)OC(C)(C)C)cc1 (stereo not shown) : 41.2 to 44.1 °C
35. COC(=O)c1ccc(N(C)CC2(O)CCN(CCc3ccc(C(F)(F)F)cc3)CC2)cc1 : 142.7 to 143.9 °C
36. CN(CC1(O)CCN(Cc2ccc(C#N)cc2)CC1)c1ccc(C(=O)O)cc1.Cl : 153.1 to 157.7 °C
37. Cl.N#Cc1ccc(CCN2CCC(O)(C[S+]([O-])c3ccc(C(=O)O)cc3)CC2)cc1 (stereo not shown) : 279.7 °C (dec.)
